These measurements were taken from patent US20250090680A1.

studySystem: recombinant human GPC3 protein (R&D Systems) (human) (UniProt P51654)
experimentalDetails: Octet (BLI) off-rate ranking of scFv
Response field label takes 1 when koff is strictly below 0.0003 s⁻¹ and 0 in all other cases.

- P6-D11 scFv clone (scFv, part only; not given: linker, domain order, tags, V domains shown, not shown: another chain or arm of the molecule; large carriers; small tags and cut ends) VH: QVQLVQSGAEVKKPGASVKVSCKASGYTFTDYEMHWVRQAPGQGLEWMGALDPKTGDEAYSQKFKGRVTLTADKSTSTAYMELSSLTSEDTAVYYCTRFYSYTYWGQGTLVTVSS VL: DVVMTQSPLSLPVTPGEPASISCRSEQSLVHSNGNTYLHWYLQKPGQSPQLLIYKVSNRFSGVPDRFSGSGSGTDFTLKISRVEAEDVGVYYCVQNGLFPPTFGQGTKLEIK: 1
- P1-G5 scFv clone (scFv, part only; not given: linker, domain order, tags, V domains shown, not shown: another chain or arm of the molecule; large carriers; small tags and cut ends) VH: QVQLVESGAEVKKPGASVKVSCKASGYTFTDYEMHWVRQAPGQGLEWMGAIDPKTGDTAYSQKFKGRVTLTADKSTSTAYMELSSLTSEDTAVYYCTRFYSYTYWGQGTLVTVSS VL: DVVMTQSPLSLPVTPGEPASISCRSSQSLVHSNGNTYLQWYLQKPGQSPQLLIYKVSNRFSGVPDRFSGSGSGTDFTLKISRVEAEDVGVYYCSQVTHVPPTFGQGTKLEIK: 1
- P1-B9 scFv clone (scFv, part only; not given: linker, domain order, tags, V domains shown, not shown: another chain or arm of the molecule; large carriers; small tags and cut ends) VH: QVQLVESGAEVKKPGASVKVSCKASGYTFTDYEMHWVRQAPGQGLEWMGALDPKTGDTALSQKFKGRVTLTADKSTSTAYMELSSLTSEDTAVYYCTRFYSYTYWGQGTLVTVSS VL: DVVMTQSPLSLPVTPGEPASISCRSSQSLVHSNGNTYLQWYLQKPGQSPQLLIYKVSNRFSGVPDRFSGSGSGTDFTLKISRVEAEDVGVYYCGQVTHVPPTFGQGTKLEIK: 1
- P1-D6 scFv clone (scFv, part only; not given: linker, domain order, tags, V domains shown, not shown: another chain or arm of the molecule; large carriers; small tags and cut ends) VH: QVQLVQSGAEVKNPGASVKVSCKASGYTFTDYEMHWVRQAPGQGLEWMGALDPFTGDTAYSQKFKGRVTLTADKSTSTAYMELSSLTSEDTAVYYCTRFYSYTYWGQGTLVTVSS VL: DVVMTQSPLSLPVTPGEPASISCRSSQSLVHSNGNTYLHWYLQKPGQSPQLLIYKVSNRFSGVPDRFSGSGSGTDFTLKISRVEAEDVGVYYCLQNGYVPPTFGQGTKLEIK: 1
- P1-E6 scFv clone (scFv, part only; not given: linker, domain order, tags, V domains shown, not shown: another chain or arm of the molecule; large carriers; small tags and cut ends) VH: QVQLVESGAEVKKPGASVKVSCKASGYTFTDYEMHWVRQAPGQGLEWMGALDPKTGDTALSQKFKGRVTLTADKSTSTAYMELSSLTSEDTAVYYCTRFYSYTYWGQGTLVTVSS VL: DVVMTQSPLSLPVTPGEPASISCRSSSSLVHSNGNTYLHWYLQKPGQSPQLLIYKVSNRFSGVPDRFSGSGSGTDFTLKISRVEAEDVGVYYCLQNGIVPPTFGQGTKLEIK: 0

Turning now to a further record.
Field: below-cutoff. Rule: recorded koff strictly less than 0.0003 s⁻¹. Subject: P3-F7 scFv clone (scFv, part only; not given: linker, domain order, tags, V domains shown, not shown: another chain or arm of the molecule; small tags and cut ends) VH: QVQLVESGAEVKKPGASVKVSCKASGYTFTDYEMHWVRQAPGQGLEWMGALDPKTGDTAYSQKFKGRVTLTADKSTSTAYMELSSLTSEDTAVYYCTRFYSYTYWGQGTLVTVSS VL: DVVMTQSPLSLPVTPGEPASISCRSSQSLVHSNGNTYLQWYLQKPGQSPQLLIYKVSNRFSGVPDRFSGSGSGTDFTLKISRVEAEDVGVYYCVQVTHVPPTFGQGTKLEIK
0
